These measurements were taken from the supplement of paper PMC10567573.

B1: RHOBTB2 (parent)
chain: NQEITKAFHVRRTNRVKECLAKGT

# Variants of: B1
# Experiment Notes: protein stability index of a GFP-peptide fusion (GPS, HEK-293T) (PSI 1-6); higher = more stable;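 also: lentivirally expressed fusions sorted by FACS into six bins by GFP to DsRed ratio, PSI derived from sequencing read proportions per bin multiplied by bin number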
# Details: c terminus: a fixed tail appended
Observed Property: protein stability index
Lab note: jot down the number only; don't add units.

In plain terms, H9I has a documented protein stability index of 3.08

In plain terms, E3D has a documented protein stability index of 2.63

In plain terms, T13D has a documented protein stability index of 4.09

In plain terms, T5E has a documented protein stability index of 4.16

In plain terms, K17N has a documented protein stability index of 2.92

In plain terms, T13E has a documented protein stability index of 3.97

In plain terms, K6E has a documented protein stability index of 4.03

In plain terms, A7Q has a documented protein stability index of 3.5

In plain terms, N1Y has a documented protein stability index of 2.26

In plain terms, E18V has a documented protein stability index of 3.4

In plain terms, T5H has a documented protein stability index of 4.29

In plain terms, C19A has a documented protein stability index of 3.42

In plain terms, I4T has a documented protein stability index of 5.01

In plain terms, K17H has a documented protein stability index of 2.94

In plain terms, V16S has a documented protein stability index of 2.95

In plain terms, N1S has a documented protein stability index of 3.94

In plain terms, V16W has a documented protein stability index of 3.4

In plain terms, E18W has a documented protein stability index of 2.23

In plain terms, T24A has a documented protein stability index of 3.55

In plain terms, V16D has a documented protein stability index of 4.7

In plain terms, E3Q has a documented protein stability index of 2.22

In plain terms, R12M has a documented protein stability index of 3.29
